- target: Interstitial collagenase (Homo sapiens, UniProt P03956)
- Sequence (P03956 whole entry, the tested form may be a part): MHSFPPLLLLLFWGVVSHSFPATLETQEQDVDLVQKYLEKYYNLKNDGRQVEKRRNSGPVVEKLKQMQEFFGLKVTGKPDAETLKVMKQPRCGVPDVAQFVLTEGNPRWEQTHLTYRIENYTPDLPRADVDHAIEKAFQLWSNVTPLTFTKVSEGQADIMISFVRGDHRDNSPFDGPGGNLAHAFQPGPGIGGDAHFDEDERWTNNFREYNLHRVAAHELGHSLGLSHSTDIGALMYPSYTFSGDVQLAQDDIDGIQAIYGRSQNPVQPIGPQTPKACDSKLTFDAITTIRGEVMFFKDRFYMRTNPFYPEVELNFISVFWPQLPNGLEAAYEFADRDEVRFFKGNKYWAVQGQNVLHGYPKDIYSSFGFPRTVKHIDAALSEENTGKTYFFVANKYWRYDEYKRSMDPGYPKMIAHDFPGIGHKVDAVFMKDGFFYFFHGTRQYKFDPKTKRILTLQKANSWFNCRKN
- experiment description: Inhibition of human recombinant MMP1 catalytic domain incubated for 20 mins by fluorimetric assay
experimental readout: pIC50
// pIC50: -log10(molar conc.)

Consider the worked cases shown below.
COC(=O)C1(O)CC(OC(=O)/C=C/c2ccc(O)c(O)c2)C(O)C(OC(=O)/C=C/c2ccc(O)c(O)c2)C1 (stereo not drawn) | 4.79
COc1cc(C[C@@H](CO)[C@H](CO)Cc2ccc(O)c(OC)c2)ccc1O [(+)-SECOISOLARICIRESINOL] | 4.30
COC(=O)[C@@H](Cc1ccc(O)c(O)c1)OC(=O)/C=C/c1ccc(O)c(O)c1 [METHYL ROSMARINATE] | 4.83
CC(C)CC(=O)OC(C(=O)O)C(C)C (stereo not drawn) | 4.98
O=c1c2cc(O)c(O)cc2oc2cc(O)cc(O)c12 | 4.94
COC(=O)[C@@H](Cc1ccc(O)c(O)c1)OC(=O)/C=C/c1ccc(O)c2c1[C@H](C(=O)OC)[C@@H](c1ccc(O)c(O)c1)O2 [DIMETHYL LITHOSPERMATE] | 5.08

// query Please give the documented pIC50 of CNC(=O)C(CCc1ccccc1)NC(=O)C(CC(=O)NO)CC(C)C (stereo not drawn)
// result 8.39

// query Quick one: give measured pIC50 for CCCCOC(=O)[C@H]1c2c(/C=C/C(=O)O[C@H](Cc3ccc(O)c(O)c3)C(=O)O)ccc(O)c2O[C@@H]1c1ccc(O)c(O)c1
// result 5.49

* * *

- target: Matrix metalloproteinase-9 (Homo sapiens, UniProt P14780)
- Sequence (P14780 whole entry, the tested form may be a part): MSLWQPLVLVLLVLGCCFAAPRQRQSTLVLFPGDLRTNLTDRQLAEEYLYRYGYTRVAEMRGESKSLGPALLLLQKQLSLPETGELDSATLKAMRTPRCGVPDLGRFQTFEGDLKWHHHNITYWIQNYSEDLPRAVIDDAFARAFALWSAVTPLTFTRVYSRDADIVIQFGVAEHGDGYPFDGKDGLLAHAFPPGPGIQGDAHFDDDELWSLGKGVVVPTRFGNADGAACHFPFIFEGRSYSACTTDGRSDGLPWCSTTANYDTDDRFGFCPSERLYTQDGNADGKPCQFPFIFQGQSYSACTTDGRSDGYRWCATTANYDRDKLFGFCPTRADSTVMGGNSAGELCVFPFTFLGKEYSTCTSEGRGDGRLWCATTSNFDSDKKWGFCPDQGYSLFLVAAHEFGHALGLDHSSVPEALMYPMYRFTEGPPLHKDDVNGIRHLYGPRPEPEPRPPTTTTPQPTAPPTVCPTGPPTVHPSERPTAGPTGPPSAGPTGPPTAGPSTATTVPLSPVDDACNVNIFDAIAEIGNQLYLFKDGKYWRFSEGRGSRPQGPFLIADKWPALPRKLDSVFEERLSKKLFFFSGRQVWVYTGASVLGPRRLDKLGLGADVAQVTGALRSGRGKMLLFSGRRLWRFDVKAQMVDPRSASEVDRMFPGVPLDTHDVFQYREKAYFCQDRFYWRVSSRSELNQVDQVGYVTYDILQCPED
- experiment description: Inhibition of human recombinant MMP9 catalytic domain incubated for 20 mins by fluorimetric assay
Listing of recorded IC50 by entry.
Numbers only here, please. The scale is µM.

Worked examples follow.
O=C1c2c(O)cc(O)cc2O[C@]2(c3ccc(O)cc3)Oc3cc(O)c4c(c3[C@@]12O)O[C@H](c1ccc(O)cc1)CC4 | 21.2
C[C@@H]1O[C@@H](O[C@@H]2[C@@H](O)[C@H](OCCc3ccc(O)c(O)c3)O[C@H](COC(=O)/C=C/c3ccc(O)c(O)c3)[C@H]2O)[C@H](O)[C@H](O)[C@H]1O [ISOACTEOSIDE] | 14.3
O=C1CCC(O)(CCOC(=O)/C=C/c2ccc(O)c(O)c2)CC1 | 12.5

// query Provide one value: measured IC50 of COc1cc(C(O)C(CO)Oc2ccc(/C=C\CO)cc2OC)ccc1O (configuration not stated)
// result 9.91

// query Specify reported IC50 for the compound shown: COC(=O)[C@@H](Cc1ccc(O)c(O)c1)OC(=O)/C=C/c1ccc(O)c2c1[C@H](C(=O)OC)[C@@H](c1ccc(O)c(O)c1)O2 [DIMETHYL LITHOSPERMATE]
// result 0.99

// query Query IC50 for CCCCOC(=O)[C@H]1c2c(/C=C/C(=O)O[C@H](Cc3ccc(O)c(O)c3)C(=O)O)ccc(O)c2O[C@@H]1c1ccc(O)c(O)c1
// result 3.46

// query Supply measured IC50 of O=c1cc(-c2ccc(O)c(O)c2)oc2cc(O)cc(O)c12 in your reply.
// result 5.62

* * *

Each item that follows carries a reported IC50.
- target: 72 kDa type IV collagenase (Homo sapiens)
- Sequence (P08253 whole entry, the tested form may be a part): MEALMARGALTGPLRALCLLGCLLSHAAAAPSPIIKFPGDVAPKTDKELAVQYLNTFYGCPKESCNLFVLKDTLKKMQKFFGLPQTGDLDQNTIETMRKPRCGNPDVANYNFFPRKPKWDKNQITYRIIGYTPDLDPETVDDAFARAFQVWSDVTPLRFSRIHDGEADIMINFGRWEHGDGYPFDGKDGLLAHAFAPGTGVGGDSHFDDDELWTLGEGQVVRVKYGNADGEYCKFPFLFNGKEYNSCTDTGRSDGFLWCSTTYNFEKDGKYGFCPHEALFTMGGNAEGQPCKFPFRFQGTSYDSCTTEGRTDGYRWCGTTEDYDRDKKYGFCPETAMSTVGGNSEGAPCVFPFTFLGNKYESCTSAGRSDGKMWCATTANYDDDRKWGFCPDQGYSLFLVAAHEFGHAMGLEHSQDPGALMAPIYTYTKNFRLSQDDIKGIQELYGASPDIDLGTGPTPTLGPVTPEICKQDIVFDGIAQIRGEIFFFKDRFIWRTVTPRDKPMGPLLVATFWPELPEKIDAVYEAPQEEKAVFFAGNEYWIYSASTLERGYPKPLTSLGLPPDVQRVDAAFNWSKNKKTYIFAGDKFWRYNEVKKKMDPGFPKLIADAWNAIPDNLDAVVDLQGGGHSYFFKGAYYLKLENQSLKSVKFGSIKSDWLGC
- experiment description: Inhibition of human recombinant MMP2 catalytic domain incubated for 20 mins by fluorimetric assay
Answer with a number only, understood to be in µM.

Example entries begin here.
COC(=O)[C@@H](Cc1ccc(O)c(O)c1)OC(=O)/C=C/c1ccc(O)c2c1[C@H](C(=O)OC)[C@@H](c1ccc(O)c(O)c1)O2 [DIMETHYL LITHOSPERMATE] | 11.6
Oc1cc(O)cc(/C=C/c2ccc(O)cc2O)c1 | 27.6
O=C1c2c(O)cc(O)cc2O[C@H](c2cc(O)c(O)c(O)c2)[C@@H]1O | 11.9
O=c1cc(-c2ccc(O)c(O)c2)oc2cc(O)cc(O)c12 | 3.61
O=C(c1c(O)cc(O)cc1O)C1c2c(cc(O)c3c2O[C@H](c2ccc(O)cc2)[C@@H](O)C3)OC1c1ccc(O)cc1 (stereo partly drawn) [DIHYDRODAPHNODORIN B] | 14.1

// query Supply IC50 value. Item: CNC(=O)C(CCc1ccccc1)NC(=O)C(CC(=O)NO)CC(C)C (stereo not drawn)
// result 0.0036

// query Return IC50 (reported value) for this compound: O=c1c(O)c(-c2ccc(O)c(O)c2)oc2cc(O)cc(O)c12
// result 6.68

// query Give IC50 for the following compound: C[C@]12CCC[C@@](C)(C(=O)O)[C@@H]1CCC1=CC(=O)CC[C@@H]12
// result 33.3
